Please respond with reported IC50 for every item in the list.
Target: human CXCR3 (N-delta 4) (Homo sapiens)
Construct: CD8 leader (N); Flag tag; expressed in transfected cells; membrane preparation
Sequence (P49682 5-368 limits assumed): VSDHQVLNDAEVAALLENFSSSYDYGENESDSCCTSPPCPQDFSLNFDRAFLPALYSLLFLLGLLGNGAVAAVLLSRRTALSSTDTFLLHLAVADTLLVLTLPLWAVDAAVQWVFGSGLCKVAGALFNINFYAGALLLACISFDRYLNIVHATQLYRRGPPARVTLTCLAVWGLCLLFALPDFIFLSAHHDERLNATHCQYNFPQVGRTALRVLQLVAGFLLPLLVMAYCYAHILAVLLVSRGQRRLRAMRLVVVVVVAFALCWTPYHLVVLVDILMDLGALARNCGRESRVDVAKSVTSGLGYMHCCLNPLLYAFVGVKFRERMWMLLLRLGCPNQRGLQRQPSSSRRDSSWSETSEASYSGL
Experiment: Human CXCR3 (N-delta 4) scintillation proximity assay (SPA), [125I] IP-10 binding to Ba/F3-hCXCR3 membranes
Settings: IC50 rating; [125I] IP-10 displacement, human CXCR3; read-out: IC50

Exercise: Look at this compound and give its reported IC50. CC[C@H]1CN(c2ncc(NC3=NS(=O)(=O)N=C3NC3CC3)cc2Cl)CCN1C1CCN(C(=O)c2ccc(Cl)cc2O)CC1 [Compound 275]
Key: > 100 nM

Exercise: Same question for CC[C@H]1CN(c2ncc(NS(C)(=O)=O)cc2Cl)CCN1C1CCN(Cc2ccc(Cl)cc2)CC1 [Compound 6] please.
Key: < 25 nM

Exercise: Same question for CC[C@H]1CN(c2ncc(Nc3c(NCC(F)(F)F)c(=O)c3=O)cc2Cl)CCN1C1CCN(C(CO)c2ccc(Cl)cc2)CC1 (stereo partly shown) [Compound 85] please.
Key: < 25 nM

Exercise: Same question for CC[C@H]1CN(c2ncc(NC3=NS(=O)(=O)N=C3NC(C)(C)C)cc2Cl)CCN1C1CCN(Cc2ccc(Cl)cc2C#N)CC1 [Compound 267] please.
Key: > 100 nM

Exercise: Same question for CC[C@H]1CN(c2ncc(N(C)c3c(NC4CC4)c(=O)c3=O)cc2Cl)CCN1C1CCN(C(CO)c2ccc(Cl)cc2)CC1 (stereo partly shown) [Compound 108] please.
Key: 25 to 100 nM

Exercise: Same question for CC[C@H]1CN(c2ncc(NC3=NS(=O)(=O)N=C3NCCO)cc2Cl)CCN1C1CCN(Cc2ccc(OC(F)(F)F)cc2)CC1 [Compound 239] please.
Key: < 25 nM

Exercise: Same question for C[C@H]1CN(c2ncc(NC(=O)C3CCCCC3)cc2Cl)CCN1C1CCN(Cc2ccc(Cl)cc2)CC1 [Compound 194] please.
Key: > 100 nM

Where do these numbers come from? They come from patent US7566718B2.
